reportedProperty: log10 of NOAEL (log10 of the value in µM)
Would you kindly interpret these values as log10 of NOAEL expressed in µM?

Query for human PPARγ1 (Homo sapiens): what log10 of NOAEL does the record show for c1ccc(OP(Oc2ccccc2)Oc2ccccc2)cc1 ?
0.08

Query for human PPARγ1 (Homo sapiens): what log10 of NOAEL does the record show for O=C(O)c1cc(Br)c(Br)c(Br)c1Br ?
0.08

Query for human PPARγ1 (Homo sapiens): what log10 of NOAEL does the record show for CC(C)COC(=O)c1ccccc1C(=O)OCC(C)C [DiBP, diisobutyl phthalate] ?
-0.40

Query for human PPARγ1 (Homo sapiens): what log10 of NOAEL does the record show for [Cl][Sn]([c]1ccccc1)([c]1ccccc1)[c]1ccccc1 [TPT, triphenyltin chloride] ?
-3.52

Query for human PPARγ1 (Homo sapiens): what log10 of NOAEL does the record show for CCCCC/C=C/C=C1/C(=O)C=C[C@@H]1C/C=C\CCCC(=O)O [15d-PJG2, reference compound] ?
-2.00

Query for human PPARγ1 (Homo sapiens): what log10 of NOAEL does the record show for Brc1ccc(Oc2ccc(Br)cc2Br)c(Br)c1 ?
-0.10

Query for human PPARγ1 (Homo sapiens): what log10 of NOAEL does the record show for CCCCOC(=O)c1ccccc1C(=O)OCc1ccccc1 [BzBP, benzylbutyl phthalate] ?
-0.89

Query for human PPARγ1 (Homo sapiens): what log10 of NOAEL does the record show for Oc1c(I)cc(I)cc1I ?
-0.40

Query for human PPARγ1 (Homo sapiens): what log10 of NOAEL does the record show for CC(C)(c1cc(Cl)c(O)c(Cl)c1)c1cc(Cl)c(O)c(Cl)c1 ?
-1.05

Query for human PPARγ1 (Homo sapiens): what log10 of NOAEL does the record show for CCCCOC(=O)c1ccccc1C(=O)OCCCC [DBP, dibutyl phthalate] ?
-0.40

Query for human PPARγ1 (Homo sapiens): what log10 of NOAEL does the record show for O=P(Oc1ccccc1)(Oc1ccccc1)Oc1ccccc1 [TPP, triphenyl phosphate] ?
-0.40

Query for human PPARγ1 (Homo sapiens): what log10 of NOAEL does the record show for CC(C)(C)c1ccc(OP(=O)(Oc2ccc(C(C)(C)C)cc2)Oc2ccc(C(C)(C)C)cc2)cc1 [TBPP, tris (4,tert-butyl-phenyl) phosphate] ?
-0.40

Query for human PPARγ1 (Homo sapiens): what log10 of NOAEL does the record show for CCCCC(CC)COC(=O)c1c(Br)c(Br)c(Br)c(Br)c1C(=O)O (stereo not drawn) ?
-0.89

Query for human PPARγ1 (Homo sapiens): what log10 of NOAEL does the record show for Oc1c(Br)ccc(Oc2ccc(Br)cc2Br)c1Br ?
-0.10

Query for human PPARγ1 (Homo sapiens): what log10 of NOAEL does the record show for Oc1c(Br)cc(Br)cc1Br ?
-0.10
